Test system: 786-0 renal
Assay: NCI tumour cell line growth inhibition, 48 h
Measured log10(TGI), listed per entry for reference.
Reminder: these figures are log10 of reported TGI, in µM before transformation.

Recorded log10(TGI), per entry:
| compound | log10(TGI) |
| --- | --- |
| CCC12C=CCN3CCC4(c5cc(C6(C(=O)OC)CCCCCc7c6[nH]c6ccccc76)c(OC)cc5N(C)C4C(O)(C(=O)OC)C1OC(C)=O)C32 (stereo not given) | 0.69 |
| O=C(OCC1OC(n2cc(C(F)(F)F)c(=O)[nH]c2=O)CC1OC(=O)c1ccc([N+](=O)[O-])cc1)c1ccc([N+](=O)[O-])cc1 (stereo not given) | 1.27 |
| CCN(CC)CCN1C(=O)CC2[C@@H]3CCc4cc(OC)ccc4C3CC[C@]2(C)C1=O (stereo not given in full) | 1.49 |
| COc1cc2c3c(n(CCCNC4=NCCS4)c(=O)c2cc1OC)-c1cc2c(cc1C3=O)OCO2 | -1.43 |
| Cn1cc(-c2csc(-c3c[nH]c4ccccc34)n2)c2cnccc21 | 0.54 |

Sure, the documented log10(TGI) for Cc1cc(Cl)ccc1OCc1nn2c(CCCCc3nnc4sc(COc5ccc(Cl)cc5C)nn34)nnc2s1 is 1.74

Sure, the documented log10(TGI) for Cc1cccc2c(NCCCN(C)C)c3c([N+](=O)[O-])ccc(C)c3nc12 is -0.24

Sure, the documented log10(TGI) for C=CCCCCNC(=O)C[C@@H]1C2=C(CC[C@H]1O[Si](C)(C)C(C)(C)C)N1C(=O)CCC/C=C\C1C2 (stereo not given in full) is 1.46

Sure, the documented log10(TGI) for Cn1cnc([N+](=O)[O-])c1Sc1nc2ccccc2s1 is 1.39

Sure, the documented log10(TGI) for N#CC(C/C=C/c1ccccc1)NNC(=O)c1c(Cl)c(Cl)c(Cl)c(Cl)c1-c1nc2ccc(C(=O)c3ccccc3)cc2[nH]1 (stereo not given) is 1.48

Sure, the documented log10(TGI) for CC/C=C/C(CC)C/C(C)=C\[C@]1(CC)C[C@H](CC)[C@H](CC(=O)O)OO1 (stereo not given in full) is 0.42

Sure, the documented log10(TGI) for COc1ccc2c(c1OC)-c1c(c3ccc([N+](=O)[O-])cc3c(=O)n1CCCN)C2=O is 0.96

Sure, the documented log10(TGI) for Cn1ccc2c1SSSSS2 is 1.77

Sure, the documented log10(TGI) for CC(=O)NC1C(OCc2ccccc2)OC(CO)C(O)C1OC(C)C(=O)NC(C)C(=O)N[C@@H](CCC(=O)OCCCNC1c2ccccc2Nc2cccc([N+](=O)[O-])c21)C(N)=O (stereo not given in full) is -1.51

Sure, the documented log10(TGI) for CN(C)CC1CC/C(=C\c2ccc(Cl)cc2)C1=O (stereo not given) is 0.83

====

Tested on: IGROV1 ovarian
Assay: NCI tumour cell line growth inhibition, 48 h; in the data active means GI50 below about 0.43 µM; inactive means the rest
Write down the outcome that applies. Available outcomes: active, inactive

| molecule | assigned.label |
| --- | --- |
| c1ccc(CC(Cc2ccccc2)C2=NCCCN2)cc1 | inactive |
| Nc1nc2cc(O)ccc2n2cc3c(F)cccc3c12 | inactive |
| C[CH2][Sn]([CH2]C)([O]C(=O)c1c(F)cccc1F)[O][Sn]([CH2]C)([CH2]C)[O]C(=O)c1c(F)cccc1F | inactive |
| COc1cc(/C=C2\C(=O)Nc3ccccc32)cc(OC)c1O | inactive |

Could you now consider this next molecule?
# outcome recorded in this test, key = CC(=O)NC1C(OCc2ccccc2)OC(CO)C(O)C1OC(C)C(=O)NC(C)C(=O)N[C@@H](CCC(=O)OCCCNC1c2ccccc2Nc2cccc([N+](=O)[O-])c21)C(N)=O (stereo not given in full)
active
